Test: Example 4: dose response of FKBP constructs 160-255, Ec50, Ec90 and fold change (raw and normalized to mCherry)
Type: cell-based
Settings: fold change during initial analysis
Procedure: Additional experiments were performed for constructs FKBP-160-292.
recorded-metric: FC (fold change)

molecule	recorded-metric	result
FKBP-243: FKBP13 DRD-AcGFP construct of Table 10 (protein, Description of sequence: Construct Name: FKBP-243; Mutation(s): Q72R Q84E A117W V85R DRD P118S) HCPIKSRKGDVLHMHYTGKLEDGTEFDSSLPRNQPFVFSLGTGERIKGWDQGLLGMCEGEKRKLVIPSELGYGERGWSPKIPGGATLVFEVELLKIER	FC (fold change)	37.1
FKBP-252 (protein, Description of sequence: Construct Name: FKBP-252; Mutation(s): Q72R Q84E A117W DRD I136P) HCPIKSRKGDVLHMHYTGKLEDGTEFDSSLPRNQPFVFSLGTGEVIKGWDQGLLGMCEGEKRKLVIPSELGYGERGWPPKIPGGATLVFEVELLKPER	FC (fold change)	1.3

Provenance of the data: patent US20250186614A1
